Quick reference for EC50 among some sequences
tested on: B. thailandensis; conditions: concentration required to kill 50% of B. thailandensis; 10 mM phosphate buffer, 3 h, 37° C.
Where no end group is shown, it is not given here.

- RESIDUES: "CPGFAKKFAKKFKKFAKKFAKFAFAF [RP438]"
  MEASURE_UNIT: "µM"
  EC50: 11.2
- RESIDUES: "FAFAFAFKKAFKKFKKAFKKAF [RP442]"
  MEASURE_UNIT: "µM"
  EC50: 0.95

Cited source for all entries: patent US10017542B2
